Measured logD values are reported for all entries that follow.
- assay method text: Lipophilicity, log D of the compound at pH 7.4
- Format: physicochemical
- assay setup: buffer
readout label: logD

CC(=O)Nc1ccccc1OCc1cc(C)nc(-c2ccccn2)n1: 1.6
Fc1ccc(OCc2cc(OCC3CCC3)nc(-c3ccccn3)n2)c(F)c1F: 4.5
Cc1cc(COc2cccc(C#N)c2)nc(-c2ccccn2)n1: 2.7
CC1(C#N)CN(c2cc(COc3ccc(F)c(F)c3F)nc(-c3ccccn3)n2)C1: 3.3
Cc1cc(COc2cc(F)c(F)cc2F)nc(-c2ccccn2)n1: 3.2
COc1ccccc1OCc1cc(C)nc(-c2ccccn2)n1: 2.5
c1ccc(OCc2cc(N3CCOCC3)nc(-c3ccccn3)n2)cc1: 2.8
Cc1cc(COc2ccccc2Cl)nc(-c2ccccn2)n1: 3.4
Cc1cc(COc2ccc(C#N)cc2)nc(-c2ccccn2)n1: 2.6
Cc1cc(COc2cccc(F)c2F)nc(-c2ccccn2)n1: 3.2
Cc1cc(COc2cc(F)c(F)c(F)c2)nc(-c2ccccn2)n1: 3.4
CC1(COc2cc(COc3ccc(F)c(F)c3F)nc(-c3ccccn3)n2)COC1: 4
CCOc1cc(COc2cccc(F)c2)nc(-c2ccccn2)n1: 4.1
CCNc1cc(COc2cccc(F)c2)nc(-c2ccccn2)n1: 3.9
COc1cccc(OCc2cc(C)nc(-c3ccccn3)n2)c1: 2.9
Cc1cc(COc2cc(F)cc(F)c2F)nc(-c2ccccn2)n1: 3.4
Cc1cc(COc2ccc(F)cc2F)nc(-c2ccccn2)n1: 3.1

----------
- assay method text: Lipophilicity, log D of the compound at pH 7.4
- Type: physicochemical
- assay setup: buffer
Measured logD values are reported for all entries that follow.
readout label: logD

Cc1cc(COc2ccccc2F)nc(-c2ccccn2)n1: 2.9
Cc1cc(N/N=C/c2ccccc2)nc(-c2ccccc2)n1: 4.3
Fc1ccc(OCc2cc(N3CC4(CCO4)C3)nc(-c3ccccn3)n2)c(F)c1F: 3.3
COC1(COc2cc(COc3ccc(F)c(F)c3F)nc(-c3ccccn3)n2)COC1: 3.5
Fc1ccc(OCc2cc(OCC3(F)COC3)nc(-c3ccccn3)n2)c(F)c1F: 4
CN(C)c1cc(COc2cccc(F)c2)nc(-c2ccccn2)n1: 3.6
COc1ccc(OCc2cc(C)nc(-c3ccccn3)n2)cc1: 2.8
Cc1cc(COc2ccc(F)c(F)c2)nc(-c2ccccn2)n1: 3.2
COc1cc(COc2cccc(F)c2)nc(-c2ccccn2)n1: 3.6
Cc1cc(COc2ccc(Cl)cc2)nc(-c2ccccn2)n1: 3.7
OC1CN(c2cc(COc3ccc(F)c(F)c3F)nc(-c3ccccn3)n2)C1: 2.8
Cc1cc(COc2cccc(F)c2)nc(-c2ccccn2)n1: 3.1

----------
Measured pIC50 values are reported for all entries that follow.
- test target: Free fatty acid receptor 1 (Homo sapiens)
- Sequence (O14842 whole entry): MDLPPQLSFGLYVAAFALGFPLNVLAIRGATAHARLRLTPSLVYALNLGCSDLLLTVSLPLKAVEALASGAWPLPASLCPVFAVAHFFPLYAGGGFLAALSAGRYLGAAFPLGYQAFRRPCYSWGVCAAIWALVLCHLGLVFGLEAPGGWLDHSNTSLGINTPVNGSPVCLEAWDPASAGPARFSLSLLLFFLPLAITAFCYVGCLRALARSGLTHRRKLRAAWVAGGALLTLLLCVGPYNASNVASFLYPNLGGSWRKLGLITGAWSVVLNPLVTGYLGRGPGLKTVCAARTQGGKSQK
- assay method text: Antagonist activity against human GPR40 expressed in HEK293s FLPIN cells assessed as elaidic acid stimulated IP1 release after 2 hrs by TR-FRET analysis
pIC50: −log10 of the molar value.
readout label: pIC50

Cc1cc(COc2ccccc2)nc(-c2ccccn2)n1: 6.10
N#CCC1(COc2cc(COc3ccc(F)c(F)c3F)nc(-c3ccccn3)n2)COC1: 6.40
Cc1cc(COc2ccc(Cl)cc2)nc(-c2ccccn2)n1: 6.60
CC1(COc2cc(COc3ccc(F)c(F)c3F)nc(-c3ccccn3)n2)COC1: 7.10
Cc1cc(COc2ccc(C#N)cc2)nc(-c2ccccn2)n1: 4.50
Cc1cc(COc2cccc(F)c2)nc(-c2ccccn2)n1: 6.10
CN(C)c1cc(COc2cccc(F)c2)nc(-c2ccccn2)n1: 5.80
Cc1cc(COc2ccc(F)c(F)c2)nc(-c2ccccn2)n1: 6.30
c1ccc(OCc2cc(N3CCOCC3)nc(-c3ccccn3)n2)cc1: 6.20
Cc1cc(COc2ccccc2C#N)nc(-c2ccccn2)n1: 5.00
Cc1cc(COc2cccc(F)c2F)nc(-c2ccccn2)n1: 6.40
Cc1cc(COc2ccc(F)cc2F)nc(-c2ccccn2)n1: 6.40

All figures here come from ChEMBL document CHEMBL3739339.
